Entries with reported pKi on Cannabinoid receptor 2 (Homo sapiens)
Scale for pKi: -log10 of concentration given in mol/L; no unit attached.

Record excerpt, results attached:
{"columns": ["smiles-string", "numeric-value"],
 "data": [
  ["C[C@H](NS(=O)(=O)C(F)(F)F)c1ccc(S(=O)(=O)c2ccc(Cl)cc2S(=O)(=O)c2c(F)cccc2N2CCOCC2)cc1", 6.85],
  ["C[C@H](NCC(F)(F)F)c1ccc(S(=O)(=O)c2ccc(Cl)cc2S(=O)(=O)c2ccccc2F)cc1", 8.15],
  ["C[C@H](NS(C)(=O)=O)c1ccc(S(=O)(=O)c2ccc(Cl)cc2S(=O)(=O)c2cccc[n+]2[O-])cc1", 6.92],
  ["C[C@H](NS(=O)(=O)C(F)(F)F)c1ccc(S(=O)(=O)c2ccc(N3CCNCC3)cc2S(=O)(=O)c2ccccc2F)cc1", 5.96],
  ["CNc1cccc(F)c1S(=O)(=O)c1cc(Cl)ccc1S(=O)(=O)c1ccc([C@H](C)NS(=O)(=O)C(F)(F)F)cc1", 7.66]
]}

Which measured pKi value corresponds to C[C@H](NS(=O)(=O)C(F)(F)F)c1ccc(S(=O)(=O)c2ccc(Cl)cc2S(=O)(=O)c2c(N)cccc2F)cc1 ?
8.39

Which measured pKi value corresponds to C[C@H](NS(C)(=O)=O)c1ccc(S(=O)(=O)c2ccc(Cl)cc2S(=O)(=O)c2cccc3cccnc23)cc1 ?
6.69

Which measured pKi value corresponds to CCCS(=O)(=O)c1cc(Cl)ccc1S(=O)(=O)c1ccc([C@H](C)NS(C)(=O)=O)cc1 ?
6.51

Which measured pKi value corresponds to C[C@H](NC(=O)C(F)(F)F)c1ccc(S(=O)(=O)c2ccc(Cl)cc2S(=O)(=O)c2ccccc2F)cc1 ?
8.43

Which measured pKi value corresponds to C[C@H](NS(C)(=O)=O)c1ccc(S(=O)(=O)c2ccc(Cl)cc2S(=O)(=O)c2ccccn2)cc1 ?
8.54

Which measured pKi value corresponds to C[C@H](NS(=O)(=O)C(F)(F)F)c1ccc(S(=O)(=O)c2ccc(N)cc2S(=O)(=O)c2ccccc2F)cc1 ?
8.00

Which measured pKi value corresponds to C[C@H](NCCC(F)(F)F)c1ccc(S(=O)(=O)c2ccc(Cl)cc2S(=O)(=O)c2ccccc2F)cc1 ?
7.77
